Every entry's value here was drawn from paper PMC3922815.

# system_under_test: human GABAA α5β2γ2 (Homo sapiens, UniProt P18507+P31644)
# Sequence (P31644 32-462, one chain of several): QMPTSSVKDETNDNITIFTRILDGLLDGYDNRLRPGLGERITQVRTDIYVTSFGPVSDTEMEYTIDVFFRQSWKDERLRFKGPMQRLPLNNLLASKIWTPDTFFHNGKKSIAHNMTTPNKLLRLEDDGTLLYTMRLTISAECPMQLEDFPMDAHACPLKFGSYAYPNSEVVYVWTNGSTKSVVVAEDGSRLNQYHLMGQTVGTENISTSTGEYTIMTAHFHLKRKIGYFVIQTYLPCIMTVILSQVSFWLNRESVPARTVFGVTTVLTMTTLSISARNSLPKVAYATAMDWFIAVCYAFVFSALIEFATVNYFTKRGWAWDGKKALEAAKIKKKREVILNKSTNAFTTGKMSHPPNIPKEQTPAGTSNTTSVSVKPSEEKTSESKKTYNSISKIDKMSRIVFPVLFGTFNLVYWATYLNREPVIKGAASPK
# assay_remarks: biochemical
Attribute: Ki
recorded_endpoint: Ki (nM)

• Cc1ccc(-c2nc3ccc(C)cn3c2CC(=O)N(C)C)cc1 = 5430
• O=C1CN=C(c2ccccc2Cl)c2cc([N+](=O)[O-])ccc2N1 = 0.78
• CN1C(=O)CC(=O)N(c2ccccc2)c2cc(Cl)ccc21 = 331

====

# system_under_test: human GABAA α2β2γ2 (Homo sapiens, UniProt P18507+P47869)
# Sequence (P47869 29-451): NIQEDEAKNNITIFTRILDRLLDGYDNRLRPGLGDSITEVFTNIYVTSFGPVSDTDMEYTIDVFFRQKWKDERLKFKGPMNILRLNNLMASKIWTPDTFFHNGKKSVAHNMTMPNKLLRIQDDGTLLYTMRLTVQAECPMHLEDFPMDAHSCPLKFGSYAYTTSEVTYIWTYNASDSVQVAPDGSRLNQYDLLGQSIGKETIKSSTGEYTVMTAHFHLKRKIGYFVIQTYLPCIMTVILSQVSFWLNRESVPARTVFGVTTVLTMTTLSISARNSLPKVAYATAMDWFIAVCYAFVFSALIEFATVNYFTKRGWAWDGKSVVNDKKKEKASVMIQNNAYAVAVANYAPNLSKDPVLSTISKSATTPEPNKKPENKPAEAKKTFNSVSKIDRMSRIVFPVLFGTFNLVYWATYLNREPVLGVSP
# Sequence (P47870 25-512 partner limits assumed): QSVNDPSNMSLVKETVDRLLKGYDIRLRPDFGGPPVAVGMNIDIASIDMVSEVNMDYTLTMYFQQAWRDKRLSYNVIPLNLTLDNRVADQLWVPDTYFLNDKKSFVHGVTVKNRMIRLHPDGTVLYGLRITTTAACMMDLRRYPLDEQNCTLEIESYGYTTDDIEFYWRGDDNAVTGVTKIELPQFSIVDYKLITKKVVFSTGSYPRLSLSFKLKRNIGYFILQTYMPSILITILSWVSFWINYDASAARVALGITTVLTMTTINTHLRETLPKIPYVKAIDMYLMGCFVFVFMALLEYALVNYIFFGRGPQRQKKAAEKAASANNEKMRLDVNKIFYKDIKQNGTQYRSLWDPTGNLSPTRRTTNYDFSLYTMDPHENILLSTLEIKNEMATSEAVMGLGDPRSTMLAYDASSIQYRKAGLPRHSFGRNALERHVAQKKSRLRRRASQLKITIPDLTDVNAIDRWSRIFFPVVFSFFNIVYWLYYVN
# Sequence (P18507 40-475): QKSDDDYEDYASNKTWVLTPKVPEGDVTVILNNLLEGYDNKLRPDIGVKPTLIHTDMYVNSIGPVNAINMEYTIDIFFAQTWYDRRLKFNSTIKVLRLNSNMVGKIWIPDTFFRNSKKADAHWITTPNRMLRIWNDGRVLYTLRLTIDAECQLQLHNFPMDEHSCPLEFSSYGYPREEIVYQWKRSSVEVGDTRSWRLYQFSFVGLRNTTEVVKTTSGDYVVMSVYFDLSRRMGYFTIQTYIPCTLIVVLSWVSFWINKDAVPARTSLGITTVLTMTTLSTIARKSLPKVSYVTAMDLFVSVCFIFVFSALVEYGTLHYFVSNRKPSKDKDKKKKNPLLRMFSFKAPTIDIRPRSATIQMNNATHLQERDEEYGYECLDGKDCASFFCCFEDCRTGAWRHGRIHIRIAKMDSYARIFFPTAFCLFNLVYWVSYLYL
# assay_remarks: biochemical
pKi: −log10 of the molar value.
Measured pKi by item
recorded_endpoint: pKi

• CN1C(=O)CC(=O)N(c2ccccc2)c2cc(Cl)ccc21 = 6.69
• O=C1CN=C(c2ccccc2Cl)c2cc([N+](=O)[O-])ccc2N1 = 9.14

====

# system_under_test: human GABAA α1β2γ2 (Homo sapiens, UniProt P14867+P18507)
# Sequence (P14867 28-456): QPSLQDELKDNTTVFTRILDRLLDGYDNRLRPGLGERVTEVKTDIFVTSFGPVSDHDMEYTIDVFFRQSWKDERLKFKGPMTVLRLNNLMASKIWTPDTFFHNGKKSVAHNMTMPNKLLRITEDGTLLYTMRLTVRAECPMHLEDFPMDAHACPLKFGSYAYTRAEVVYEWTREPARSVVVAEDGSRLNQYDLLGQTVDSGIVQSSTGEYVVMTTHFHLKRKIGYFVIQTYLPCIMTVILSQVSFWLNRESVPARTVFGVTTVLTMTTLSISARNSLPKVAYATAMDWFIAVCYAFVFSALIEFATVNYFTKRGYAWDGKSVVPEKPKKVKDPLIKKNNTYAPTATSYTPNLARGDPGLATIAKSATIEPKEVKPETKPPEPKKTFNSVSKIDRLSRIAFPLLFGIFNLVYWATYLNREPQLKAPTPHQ
# Sequence (P47870 25-512 partner limits assumed): as the sequence (P47870 25-512 partner limits assumed) above
# Sequence (P18507 40-475): as the sequence (P18507 40-475) above
# assay_remarks: biochemical
pKi: −log10 of the molar value.
# pKi listing for each entry below
recorded_endpoint: pKi

* O=C1CN=C(c2ccccc2Cl)c2cc([N+](=O)[O-])ccc2N1 [Clonazepam] | 9.19
* CN1C(=O)CC(=O)N(c2ccccc2)c2cc(Cl)ccc21 [Clobazam] | 6.28

====

Reported values of pKi for individual entries
# system_under_test: human GABAA α3β2γ2 (Homo sapiens, UniProt P18507+P34903)
# Sequence (P34903 29-492): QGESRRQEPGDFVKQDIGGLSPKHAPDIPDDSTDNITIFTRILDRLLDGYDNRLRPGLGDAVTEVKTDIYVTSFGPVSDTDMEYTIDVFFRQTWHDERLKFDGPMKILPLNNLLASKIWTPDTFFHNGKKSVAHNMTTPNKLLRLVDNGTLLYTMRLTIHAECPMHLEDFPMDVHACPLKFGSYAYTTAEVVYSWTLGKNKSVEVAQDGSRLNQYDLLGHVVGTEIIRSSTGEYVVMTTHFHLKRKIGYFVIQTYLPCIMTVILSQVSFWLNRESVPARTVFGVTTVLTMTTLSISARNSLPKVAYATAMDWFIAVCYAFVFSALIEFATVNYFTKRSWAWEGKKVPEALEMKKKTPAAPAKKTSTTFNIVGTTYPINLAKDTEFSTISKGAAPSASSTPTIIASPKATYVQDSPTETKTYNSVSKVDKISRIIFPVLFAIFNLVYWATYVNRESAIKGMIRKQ
# Sequence (P47870 25-512 partner limits assumed): as the sequence (P47870 25-512 partner limits assumed) above
# Sequence (P18507 40-475): as the sequence (P18507 40-475) above
# assay_remarks: biochemical
pKi: −log10 of the molar value.
recorded_endpoint: pKi

• CN1C(=O)CC(=O)N(c2ccccc2)c2cc(Cl)ccc21 = 6.12
• O=C1CN=C(c2ccccc2Cl)c2cc([N+](=O)[O-])ccc2N1 = 8.65
